Tested on: 521955-158-R7-J2-PDC spheroids, viability % test/control;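 note: spheroids exposed to compound for 7 days before readout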
Assay: Anticancer human tumor 521955-158-R7-J2-PDC patient-derived pancreatic carcinoma cell line growth inhibition [TAK]; active = viability on the fitted dose curve at most 10% of control; inactive = the rest
Details: second compound 3 µM; first compound 0.01 µM; spheroids with HUVEC and MSC
Labels: active, inactive

COMPOUND: CC(C)n1nc(-c2ccc3oc(N)nc3c2)c2c(N)ncnc21 + CC(C)NCC(C(=O)N1CCN(c2ncnc3c2C(C)CC3O)CC1)c1ccc(Cl)cc1
ASSIGNED CATEGORY: inactive
//
COMPOUND: COC1CC2CCC(C)C(O)(O2)C(=O)C(=O)N2CCCCC2C(=O)OC(C(C)CC2CCC(OCCO)C(OC)C2)CC(=O)C(C)C=C(C)C(O)C(OC)C(=O)C(C)CC(C)C=CC=CC=C1C (stereo not given) + CC(C)NCC(C(=O)N1CCN(c2ncnc3c2C(C)CC3O)CC1)c1ccc(Cl)cc1
ASSIGNED CATEGORY: inactive
//
COMPOUND: CC(C)CC(NC(=O)C(Cc1ccccc1)NC(=O)c1cnccn1)B(O)O (stereo not given) + CC(C)NCC(C(=O)N1CCN(c2ncnc3c2C(C)CC3O)CC1)c1ccc(Cl)cc1
ASSIGNED CATEGORY: active
//
COMPOUND: CC(C)CC(NC(=O)CNC(=O)c1cc(Cl)ccc1Cl)B1OC(=O)CC(CC(=O)O)(C(=O)O)O1 (stereo not given) + CC(C)NCC(C(=O)N1CCN(c2ncnc3c2C(C)CC3O)CC1)c1ccc(Cl)cc1
ASSIGNED CATEGORY: inactive
//
COMPOUND: COc1c(OCCCN2CCOCC2)ccc2c3n(c(=NC(=O)c4cnc(N)nc4)nc12)CCN3 + CC(C)NCC(C(=O)N1CCN(c2ncnc3c2C(C)CC3O)CC1)c1ccc(Cl)cc1
ASSIGNED CATEGORY: inactive
